- experiment-summary: Intrinsic clearance in monkey liver microsomes assessed per mg protein at 1 uM preincubated for 5 mins followed by NADPH addition measured after 5 to 30 mins by LC-MS/MS analysis
- experimental-setup: liver microsomes; read-out: CLH
readout: microsomal CLint at 1 µM (µL/min/mg)

The examples below pair each entry with its known result.
{"compound": "CC(c1ccc2ncc(-c3cnn(C)c3)cc2c1)n1nnc2ncc(-c3cnn(CCO)c3)nc21 (centres undefined)", "endpoint-value": 16}
{"compound": "CNC(=O)c1ccc(-c2cnc3nnn(C(C)c4ccc5ncc(-c6cnn(C)c6)cc5c4)c3n2)cc1F (centres undefined)", "endpoint-value": 16}
{"compound": "CNC(=O)c1ccc(-c2cnc3nnn(C(C)c4cc5cc(-c6cnn(C)c6)cnc5cc4F)c3n2)cc1F (centres undefined)", "endpoint-value": 24}
{"compound": "CNC(=O)c1ccc(-c2cnc3nnn(C(C)c4ccc5ncc(-c6ccc(F)cc6)cc5c4)c3n2)cc1F (centres undefined)", "endpoint-value": 119}
{"compound": "CC(c1cc2cc(-c3cnn(C)c3)cnc2cc1F)n1nnc2ncc(-c3ccncc3)nc21 (centres undefined)", "endpoint-value": 49}

I = CC(c1cc2cc(-c3cnn(C)c3)cnc2cc1F)n1nnc2ncc(-c3cnn(C)c3)nc21 (centres undefined)
II = CC(c1ccc2ncc(-c3ccc(F)cc3)cc2c1)n1nnc2ncc(-c3ccncc3)nc21 (centres undefined)
III = CC(c1cc2cc(-c3cnn(C)c3)cnc2cc1F)n1nnc2ncc(-c3ccc(C(N)=O)c(F)c3)nc21 (centres undefined)
IV = CC(c1ccc2ncc(-c3cnn(C)c3)cc2c1)n1nnc2ncc(-c3ccc(C(N)=O)c(F)c3)nc21 (centres undefined)
-- ask Order the 4 compounds from highest to lowest microsomal CLint at 1 µM. Hello, could you send the labels back in the order asked? Thank you.
-- reply II, IV, I, III

* * *

- target-or-system: Mast/stem cell growth factor receptor Kit (Homo sapiens, UniProt P10721)
- Sequence (P10721 whole entry): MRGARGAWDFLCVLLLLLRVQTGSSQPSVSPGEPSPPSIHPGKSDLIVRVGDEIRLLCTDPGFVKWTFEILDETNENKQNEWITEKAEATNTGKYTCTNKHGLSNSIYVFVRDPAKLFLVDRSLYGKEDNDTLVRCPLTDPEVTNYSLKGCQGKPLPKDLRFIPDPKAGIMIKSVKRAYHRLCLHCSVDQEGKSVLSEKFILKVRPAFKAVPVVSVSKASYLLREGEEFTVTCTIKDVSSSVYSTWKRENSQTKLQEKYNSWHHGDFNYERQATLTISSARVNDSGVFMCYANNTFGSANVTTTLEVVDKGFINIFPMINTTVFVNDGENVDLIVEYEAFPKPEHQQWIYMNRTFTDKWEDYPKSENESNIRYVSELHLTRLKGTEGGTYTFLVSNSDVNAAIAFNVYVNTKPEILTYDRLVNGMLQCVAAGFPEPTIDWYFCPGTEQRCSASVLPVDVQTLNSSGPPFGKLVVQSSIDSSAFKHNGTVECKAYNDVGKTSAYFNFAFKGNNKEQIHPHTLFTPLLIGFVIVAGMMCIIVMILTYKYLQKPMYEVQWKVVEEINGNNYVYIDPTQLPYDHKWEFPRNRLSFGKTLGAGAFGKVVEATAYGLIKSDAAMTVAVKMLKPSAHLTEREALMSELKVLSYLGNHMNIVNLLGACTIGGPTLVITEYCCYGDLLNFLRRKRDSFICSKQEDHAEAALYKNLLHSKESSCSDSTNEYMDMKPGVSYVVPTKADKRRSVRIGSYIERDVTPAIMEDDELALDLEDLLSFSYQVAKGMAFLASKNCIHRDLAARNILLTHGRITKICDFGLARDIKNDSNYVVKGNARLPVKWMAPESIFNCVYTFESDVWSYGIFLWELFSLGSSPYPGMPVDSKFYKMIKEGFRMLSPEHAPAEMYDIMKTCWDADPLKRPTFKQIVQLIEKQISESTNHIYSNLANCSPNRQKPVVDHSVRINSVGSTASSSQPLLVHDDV
readout: pIC50
Worth noting: pIC50 values are minus log10 of concentrations stated in mol/L.

-- ask GET /values?readout=pIC50&item= CC(c1cc2cc(-c3cnn(C)c3)cnc2cc1F)n1nnc2ncc(-c3cnn(CCO)c3)nc21 (stereo in doubt; 14)
-- reply 5.27

* * *

- target-or-system: Epidermal growth factor receptor (Homo sapiens, UniProt P00533)
- Sequence (P00533 whole entry): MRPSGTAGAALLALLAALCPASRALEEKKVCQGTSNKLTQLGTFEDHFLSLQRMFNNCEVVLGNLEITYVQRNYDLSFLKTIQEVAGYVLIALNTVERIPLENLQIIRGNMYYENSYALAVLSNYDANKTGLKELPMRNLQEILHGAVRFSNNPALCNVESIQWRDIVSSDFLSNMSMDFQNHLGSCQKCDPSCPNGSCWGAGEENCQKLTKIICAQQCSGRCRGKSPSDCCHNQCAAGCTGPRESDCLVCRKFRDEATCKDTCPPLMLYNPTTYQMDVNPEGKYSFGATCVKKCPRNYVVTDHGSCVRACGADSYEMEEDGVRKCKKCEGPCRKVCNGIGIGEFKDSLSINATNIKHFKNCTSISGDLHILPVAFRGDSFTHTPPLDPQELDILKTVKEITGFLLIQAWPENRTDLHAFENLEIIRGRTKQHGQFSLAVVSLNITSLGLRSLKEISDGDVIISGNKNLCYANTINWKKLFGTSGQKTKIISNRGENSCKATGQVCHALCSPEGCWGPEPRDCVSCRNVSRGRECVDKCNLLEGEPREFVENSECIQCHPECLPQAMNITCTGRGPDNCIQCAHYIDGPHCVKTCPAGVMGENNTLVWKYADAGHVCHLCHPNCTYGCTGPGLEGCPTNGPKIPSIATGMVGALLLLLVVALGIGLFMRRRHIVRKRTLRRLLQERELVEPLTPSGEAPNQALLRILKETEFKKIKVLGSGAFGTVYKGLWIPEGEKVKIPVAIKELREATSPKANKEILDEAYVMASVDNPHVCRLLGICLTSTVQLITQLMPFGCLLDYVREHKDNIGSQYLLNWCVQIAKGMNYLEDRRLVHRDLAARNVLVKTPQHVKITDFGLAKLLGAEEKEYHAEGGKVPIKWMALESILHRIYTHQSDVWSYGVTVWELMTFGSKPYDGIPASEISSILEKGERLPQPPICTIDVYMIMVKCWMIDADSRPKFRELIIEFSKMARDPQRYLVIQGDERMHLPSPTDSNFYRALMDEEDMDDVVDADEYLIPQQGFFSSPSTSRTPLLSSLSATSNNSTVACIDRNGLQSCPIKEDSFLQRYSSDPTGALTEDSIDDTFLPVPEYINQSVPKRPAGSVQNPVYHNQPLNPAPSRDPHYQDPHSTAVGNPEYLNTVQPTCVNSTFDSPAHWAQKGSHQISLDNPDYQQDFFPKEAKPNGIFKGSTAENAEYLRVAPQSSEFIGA
readout: IC50

-- ask Reported IC50 for CC(c1cc2cc(-c3cnn(C)c3)cnc2cc1F)n1nnc2ncc(-c3cnn(CCO)c3)nc21 (stereo in doubt; 14) : what is it?
-- reply > 30 µM

* * *

- target-or-system: ALK tyrosine kinase receptor (Homo sapiens, UniProt Q9UM73)
- Sequence (Q9UM73 whole entry): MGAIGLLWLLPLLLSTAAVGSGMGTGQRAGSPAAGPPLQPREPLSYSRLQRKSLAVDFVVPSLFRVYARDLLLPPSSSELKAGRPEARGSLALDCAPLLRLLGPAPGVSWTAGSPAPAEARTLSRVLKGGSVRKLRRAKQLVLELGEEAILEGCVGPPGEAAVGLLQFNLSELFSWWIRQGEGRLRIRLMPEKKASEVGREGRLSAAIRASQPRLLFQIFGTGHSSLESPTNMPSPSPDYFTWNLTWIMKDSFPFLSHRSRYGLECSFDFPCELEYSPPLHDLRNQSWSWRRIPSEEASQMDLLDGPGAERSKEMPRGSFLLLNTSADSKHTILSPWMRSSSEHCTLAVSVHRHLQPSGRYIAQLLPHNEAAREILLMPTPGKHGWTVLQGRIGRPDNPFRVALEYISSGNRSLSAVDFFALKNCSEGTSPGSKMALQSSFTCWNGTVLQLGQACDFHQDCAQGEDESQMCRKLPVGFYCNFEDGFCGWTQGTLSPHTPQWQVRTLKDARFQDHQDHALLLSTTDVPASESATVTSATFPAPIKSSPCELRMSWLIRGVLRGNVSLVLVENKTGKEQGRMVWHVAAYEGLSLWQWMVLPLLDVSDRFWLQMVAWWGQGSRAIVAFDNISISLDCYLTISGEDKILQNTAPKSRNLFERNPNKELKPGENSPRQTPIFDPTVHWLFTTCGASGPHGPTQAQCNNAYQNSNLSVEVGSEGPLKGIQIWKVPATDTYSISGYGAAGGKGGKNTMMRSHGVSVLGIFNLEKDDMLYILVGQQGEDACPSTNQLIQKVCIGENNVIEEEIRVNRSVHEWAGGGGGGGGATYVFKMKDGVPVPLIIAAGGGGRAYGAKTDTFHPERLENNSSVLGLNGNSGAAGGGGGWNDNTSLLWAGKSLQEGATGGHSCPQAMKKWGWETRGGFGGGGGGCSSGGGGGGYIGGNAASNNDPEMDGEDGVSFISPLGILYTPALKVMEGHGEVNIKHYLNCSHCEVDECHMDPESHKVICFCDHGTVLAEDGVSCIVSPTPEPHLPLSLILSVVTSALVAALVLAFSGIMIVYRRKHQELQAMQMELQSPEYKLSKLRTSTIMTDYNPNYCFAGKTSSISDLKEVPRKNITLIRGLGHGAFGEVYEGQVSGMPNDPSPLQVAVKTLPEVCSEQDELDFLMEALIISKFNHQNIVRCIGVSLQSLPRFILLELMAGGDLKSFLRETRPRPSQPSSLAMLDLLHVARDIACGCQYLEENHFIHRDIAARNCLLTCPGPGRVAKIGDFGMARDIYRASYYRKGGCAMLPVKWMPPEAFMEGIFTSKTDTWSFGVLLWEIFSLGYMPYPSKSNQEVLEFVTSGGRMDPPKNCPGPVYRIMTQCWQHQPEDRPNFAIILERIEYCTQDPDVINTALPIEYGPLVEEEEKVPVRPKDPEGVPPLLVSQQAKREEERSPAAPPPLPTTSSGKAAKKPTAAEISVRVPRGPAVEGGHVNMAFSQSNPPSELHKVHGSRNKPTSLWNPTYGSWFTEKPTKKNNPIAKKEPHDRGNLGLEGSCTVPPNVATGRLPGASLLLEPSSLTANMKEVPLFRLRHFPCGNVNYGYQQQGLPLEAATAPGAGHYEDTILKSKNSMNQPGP
readout: IC50

-- ask I am curious: what IC50 value has been reported for CC(c1cc2cc(-c3cnn(C)c3)cnc2cc1F)n1nnc2ncc(-c3cnn(CCO)c3)nc21 (stereo in doubt; 14) ?
-- reply > 30 µM

* * *

- Tested on: NCI-H1993
- experiment-summary: Growth inhibition of human NCI-H1993 cells after 72 hrs by CCK-8 assay
- Assay type: functional, cell-based
- experimental-setup: Homo sapiens, NCI-H1993, 72 h
pIC50: −log10 of the molar value.
readout: pIC50

Sample records with pIC50:
{"compound": "CC(c1cc2cc(-c3ccc(F)cc3)cnc2cc1F)n1nnc2ncc(-c3cnn(C)c3)nc21 (stereo unspecified)", "pIC50": 8.39}
{"compound": "CC(c1c(F)cc2ncc(-c3ccc(F)cc3)cc2c1F)n1nnc2ncc(-c3ccncc3)nc21 (stereo unspecified)", "pIC50": 8.46}
{"compound": "CC(c1c(F)cc2ncc(-c3cnn(C)c3)cc2c1F)n1nnc2ncc(-c3ccc(C(N)=O)c(F)c3)nc21 (stereo unspecified)", "pIC50": 9.40}
{"compound": "CC(c1c(F)cc2ncc(-c3cnn(C)c3)cc2c1F)n1nnc2ncc(-c3cnn(CCO)c3)nc21 (stereo unspecified)", "pIC50": 9.10}
{"compound": "CC(c1ccc2ncc(-c3cnn(C)c3)cc2c1)n1nnc2ncc(-c3ccc(C(N)=O)c(F)c3)nc21 (stereo unspecified)", "pIC50": 9.05}

1 = CNC(=O)c1ccc(-c2cnc3nnn(C(C)c4cc5cc(-c6cnn(C)c6)cnc5cc4F)c3n2)cc1F (stereo unspecified)
2 = CNC(=O)c1ccc(-c2cnc3nnn(C(C)c4ccc5ncc(-c6cnn(C)c6)cc5c4)c3n2)cc1F (stereo unspecified)
-- ask Identify the item whose pIC50 is the smaller number: 1 or 2 Write down the label of the entry you select.
-- reply 1
